# System: Bacillus subtilis
# assay procedure: Antibacterial activity against Bacillus subtilis MTCC 441 after overnight incubation by broth microdilution method
# Assay type: functional
The entries below are paired with their reported MIC99.
Field format: number, assumed µg/mL, no unit text.

// known answers, use as guide
compound | MIC99 (µg/mL)
Cc1ccc(Oc2nc3ccccc3cc2-c2c(C#N)c(N)n3c(nc4cc(C)ccc43)c2C#N)cc1 | 250
COc1ccc(Oc2nc3ccccc3cc2-c2c(C#N)c(N)n3c(nc4cc(C)ccc43)c2C#N)cc1 | 250
COc1ccc2nc(Oc3ccccc3)c(-c3c(C#N)c(N)n4c(nc5ccccc54)c3C#N)cc2c1 | 250

INPUT: What measured MIC99 goes with `COc1ccc(Oc2nc3ccccc3cc2-c2c(C#N)c(N)n3c(nc4ccccc43)c2C#N)cc1` ?
OUTPUT: 250

INPUT: And O=C(O)c1cn(C2CC2)c2cc(N3CCNCC3)c(F)cc2c1=O [CIPROFLOXACIN] ?
OUTPUT: 50

INPUT: And `COc1ccc2nc(Oc3ccccc3)c(-c3c(C#N)c(N)n4c(nc5cc(C)ccc54)c3C#N)cc2c1` ?
OUTPUT: 250

INPUT: And `Cc1ccc2c(c1)nc1c(C#N)c(-c3cc4ccccc4nc3Oc3ccccc3)c(C#N)c(N)n12` ?
OUTPUT: 200

INPUT: And `COc1ccc2nc(Oc3ccc(C)cc3)c(-c3c(C#N)c(N)n4c(nc5ccccc54)c3C#N)cc2c1` ?
OUTPUT: 200

INPUT: And `COc1ccc(Oc2nc3ccc(C)cc3cc2-c2c(C#N)c(N)n3c(nc4cc(C)ccc43)c2C#N)cc1` ?
OUTPUT: 125

INPUT: And `Cc1ccc(Oc2nc3ccccc3cc2-c2c(C#N)c(N)n3c(nc4ccccc43)c2C#N)cc1` ?
OUTPUT: 250

INPUT: And `N#Cc1c(-c2cc3ccccc3nc2Oc2ccc(F)cc2)c(C#N)c2nc3ccccc3n2c1N` ?
OUTPUT: 250
